test: chemical genetic growth profiling, strain panel (AID 1159580);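 also: tested at 20 µM; growth read once vehicle control cultures reached saturation at 30 °C; 1 = growth at the plate median or of vehicle wells; lower values mean less growth of the strain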; conditions: S. cerevisiae deletion strains, growth OD, locus YML016C, strain PPZ1, stronger effect = lower value
Out of some 5,500 compounds screened, about 2,000 (36%) were called active. Not shown: some 18% with an inconclusive outcome. Some of the results follow.
Property Name: normalized growth

In [3]: df
Out[3]:
                                    compound  experimental_value
 0  C[N+](C)(C)CCOP(=O)([O-])OP(=O)(O)OC[C@H]1OC(n2ccc(N)nc2=O)[C@H](O)[C@@H]1O (stereo partly drawn)                   1
 1          CCCCCCCCCCCCC[N+](C)(C)Cc1ccccc1              0.0455
 2  O=[N+]([O-])O[C@H]1CO[C@H]2[C@@H]1OC[C@H]2O[N+](=O)[O-]                1.01
 3  CC1(O)/C=C/C=C(\CO)C2CC(C)(C)C2(O)CC1 (stereo not drawn)                1.01
 4                   COC(=O)COc1ccc(Cl)cc1Cl                1.01
 5  CC(C)(C)CC(C)(C)c1ccc(OCCOCC[N+](C)(C)Cc2ccccc2)cc1                1.01
 6                O=C(O)COc1cc(Cl)c(Cl)cc1Cl                1.01
 7  CCC1(c2ccc(N)cc2)CCC(=O)NC1=O (stereo not drawn)                1.01
 8               COC(=O)COc1cc(Cl)c(Cl)cc1Cl               0.966
 9              CCOC(=O)/C=C(\C)OP(=O)(OC)OC               0.986
10  COc1ccc2cc1Oc1ccc(cc1)C[C@H]1c3cc(c(OC)cc3CCN1C)Oc1c(OC)c(OC)cc3c1[C@H](C2)N(C)CC3                   1
11                  NC(N)=NOCC[C@H](N)C(=O)O               0.992
12  COc1ccc(-c2coc3c(OC)c(OC)cc(OC)c3c2=O)cc1                   1
13  NC(=O)c1ncn([C@@H]2O[C@H](CO)[C@@H](O)[C@H]2O)c1O                   1
14  Cc1cc(C(C)(C)CC(C)(C)C)ccc1OCCOCC[N+](C)(C)Cc1ccccc1              0.0514
15  CC(=C(CCOP(=O)(O)O)SC(=O)c1ccccc1)N(C=O)Cc1cnc(C)nc1N                1.01
16      COc1ccc(-c2coc3c(O)c(OC)ccc3c2=O)cc1               0.925
17     CCC1(C)CC(=O)NC1=O (stereo not drawn)                1.01
